Measured viability, T/C, listed per entry.
Tested on: 227483-062-R1-J1-PDC complex spheroids with HUVEC/MSC, viability
Assay: Anticancer human tumor 227483-062-R1-J1-PDC patient-derived pancreatic carcinoma cell line growth inhibition [CLK]
Settings: second compound 10 µM; first compound 0.1 µM; active compounds read low
Excerpt: A high-throughput screen of multi-cell type tumor spheroids was designed to identify active combinations of […] and targeted small molecules. Complex spheroids include a stromal component modeled by human endothelial cells (HUVEC) and fibroblasts modeled by human mesenchymal stem cells (MSCs). […] Compounds. […] If the clinical Cmax for an agent had not been determined, the highest concentration tested was 10 microM. […]
Your answer should be a plain number; it is taken to be in %.

compound="O=c1[nH]cc(F)c(=O)[nH]1 + CNC(=O)c1ccc(Nc2nc(OC3CCCC3)c3c(-c4ccc5nc(C)oc5c4)c[nH]c3n2)c(OC)c1" measurementtarget="227483-062-R1-J1-PDC complex spheroids with HUVEC/MSC, viability" assayvalue=39
compound="Nc1ccccc1NC(=O)c1ccc(CNC(=O)OCc2cccnc2)cc1 + CNC(=O)c1ccc(Nc2nc(OC3CCCC3)c3c(-c4ccc5nc(C)oc5c4)c[nH]c3n2)c(OC)c1" measurementtarget="227483-062-R1-J1-PDC complex spheroids with HUVEC/MSC, viability" assayvalue=30.8
compound="O=C(c1cc(Cc2n[nH]c(=O)c3ccccc23)ccc1F)N1CCN(C(=O)C2CC2)CC1 + CNC(=O)c1ccc(Nc2nc(OC3CCCC3)c3c(-c4ccc5nc(C)oc5c4)c[nH]c3n2)c(OC)c1" measurementtarget="227483-062-R1-J1-PDC complex spheroids with HUVEC/MSC, viability" assayvalue=34

-- ask Give a short answer stating reported viability, T/C for C#Cc1c(F)ccc2cc(O)cc(-c3ncc4c(N5CC6CCC(C5)N6)nc(OCC56CCCN5CC(F)C6)nc4c3F)c12 (configuration not stated) + CN1CCN(c2cc(C(=O)Nc3cc4cc(-c5cnn(C)c5)ccc4cn3)ccn2)CC1 .
-- reply 2.63

====

Tested on: 227483-062-R1-J1-PDC complex spheroids with HUVEC/MSC, viability
Experiment: Anticancer human tumor 227483-062-R1-J1-PDC cell line growth inhibition [CLK]; active = viability on the fitted dose curve at most 10% of control; inactive = the rest;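 further: spheroids exposed to compounds for seven days before readout; percent of DMSO vehicle control luminescence as 100% viability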
Conditions: second compound 3.16 µM; first compound 0.01 µM
Return exactly one item of 1 = active, -1 = inactive

Use the examples below as a reference point.
molecule="CCc1c2c(nc3ccc(O)cc13)-c1cc3c(c(=O)n1C2)COC(=O)[C@]3(O)CC + CNC(=O)c1ccc(Nc2nc(OC3CCCC3)c3c(-c4ccc5nc(C)oc5c4)c[nH]c3n2)c(OC)c1" measurementtarget="227483-062-R1-J1-PDC complex spheroids with HUVEC/MSC, viability" labelclass=-1
molecule="CCN1CCN(Cc2ccc(Nc3ncc(F)c(-c4cc(F)c5nc(C)n(C(C)C)c5c4)n3)nc2)CC1 + CN1CCN(c2cc(C(=O)Nc3cc4cc(-c5cnn(C)c5)ccc4cn3)ccn2)CC1" measurementtarget="227483-062-R1-J1-PDC complex spheroids with HUVEC/MSC, viability" labelclass=1
molecule="CCN1CCN(Cc2ccc(Nc3ncc(F)c(-c4cc(F)c5nc(C)n(C(C)C)c5c4)n3)nc2)CC1 + CNC(=O)c1ccc(Nc2nc(OC3CCCC3)c3c(-c4ccc5nc(C)oc5c4)c[nH]c3n2)c(OC)c1" measurementtarget="227483-062-R1-J1-PDC complex spheroids with HUVEC/MSC, viability" labelclass=-1
molecule="Cn1ncnc1[C@H]1c2n[nH]c(=O)c3cc(F)cc(c23)N[C@@H]1c1ccc(F)cc1 + CN1CCN(c2cc(C(=O)Nc3cc4cc(-c5cnn(C)c5)ccc4cn3)ccn2)CC1" measurementtarget="227483-062-R1-J1-PDC complex spheroids with HUVEC/MSC, viability" labelclass=1

Moving on to another molecule below.
-- ask Recorded test outcome, item Cn1ncnc1[C@H]1c2n[nH]c(=O)c3cc(F)cc(c23)N[C@@H]1c1ccc(F)cc1 + CNC(=O)c1ccc(Nc2nc(OC3CCCC3)c3c(-c4ccc5nc(C)oc5c4)c[nH]c3n2)c(OC)c1
-- reply -1

Values from PubChem BioAssay AID2060623
